target-or-test-system: CaSho1
assay-info: SPOT peptide array binding signal intensity (averaged, normalized) (arbitrary units (background-subtracted, floor 0; scale differs between SH3 domains)); higher = stronger binding of the SH3 domain to the peptide
property-name: SPOT peptide array binding signal intensity
Give your answer as a number; write no unit.

stdin: State, in one line, measured SPOT peptide array binding signal intensity of KTRLRPAFIQQLWSS
stdout: 338

stdin: Quickly give me recorded SPOT peptide array binding signal intensity for SLSRRRFSLPSMPNV
stdout: 477

stdin: Look up and state reported SPOT peptide array binding signal intensity for NPNRRAPRRPLSTQH
stdout: 562

Data provenance: the supplement of paper PMC4466140
